Let's look at some compounds and their measured EC50.
# Tested on: HBMEC
# assay_text: MTT cell proliferation, HBMEC control cells
# Assay type: cell-based, human
# setup_conditions: Homo sapiens, 72 h, read-out: Cell proliferation at d 3 HBMEC EC50, μM
Reply numerically in µM, unit not repeated.

[[record]]
compound = "FCCN1CCN(CC/C=C2/c3ccccc3Sc3ccc(C(F)(F)F)cc32)CC1"
recorded_endpoint = "EC50"
data_value = 16.3

[[record]]
compound = "CC(=O)OCCN1CCN(CC/C=C2/c3ccccc3Sc3ccc(Cl)cc32)CC1"
recorded_endpoint = "EC50"
data_value = 21.9

[[record]]
compound = "O=C1c2ccccc2[Se](=O)N1c1ccccc1 (stereo not shown) [EB1, Ebselen oxide]"
recorded_endpoint = "EC50"
data_value = 99.2


## Input // returns reported EC50 for input NCCN1CCN(CC/C=C2/c3ccccc3Sc3ccc(C(F)(F)F)cc32)CC1
## Output 0.14
